The origin of these recorded values is PubChem BioAssay (Tox21).

Test system: thyroid hormone receptor (rat, GH3 cells)
Test: qHTS assay to identify small molecule agonists of the thyroid receptor (TR) signaling pathway (AID 743066)
Details: GH3.TRE-Luc cells, TR agonist luciferase, 24 h; series mostly up to 83.9 µM
Inconclusive results are not listed. Calls of active or inactive are those of the source. The call rests on the fitted dose curve.
Outcomes: Yes = active, No = inactive

>>> df
                                    compound  classification
 0  CCC1(C2=NCCN2)Cc2ccccc2O1 (stereo not drawn)              No
 1  CC(C)(C)NCC(O)c1cc(Cl)c(N)c(C(F)(F)F)c1 (stereo not drawn)              No
 2  C=CC(C)(CCC=C(C)C)OC(=O)c1ccccc1N (stereo not drawn)              No
 3  COc1ccc2c(c1OC)C(=O)O[C@H]2[C@@H]1c2cc3c(cc2CCN1C)OCO3              No
 4   C[Si](Cn1cncn1)(c1ccc(F)cc1)c1ccc(F)cc1              No
 5  CCCC[N+]1(C)[C@@H]2CC(OC(=O)[C@H](CO)c3ccccc3)C[C@H]1[C@@H]1O[C@@H]12 (stereo partly drawn)              No
 6                        Cc1ccc2c(C)cccc2c1              No
 7  COc1ccc(C(=O)c2c(C)n(CCN3CCOCC3)c3ccccc23)cc1              No
 8  CN1CC[C@]23c4c5ccc(O)c4O[C@H]2[C@@H](O)C=C[C@H]3[C@H]1C5              No
 9         CCCCCCCCCCCC[N+](C)(C)CCOc1ccccc1              No
10  CCc1cnc(C2=NC(C)(C(C)C)C(=O)N2)c(C(=O)O)c1 (stereo not drawn)              No
11                CC(C)c1ccc(NC(=O)N(C)C)cc1              No
12            C=CCOCC1CO1 (stereo not drawn)              No
13  CC(C)(C)N(NC(=O)c1ccc(Cl)cc1)C(=O)c1ccccc1              No
14  CC(C)C1(C)N=C(c2ncccc2C(=O)O)NC1=O (stereo not drawn)              No
15  COc1ccc(C(O)(c2cncnc2)C2CC2)cc1 (stereo not drawn)              No
16  O=C(N/N=C/c1ccc([N+](=O)[O-])o1)c1cc([N+](=O)[O-])cc([N+](=O)[O-])c1O              No
17   CCCN(CCOc1c(Cl)cc(Cl)cc1Cl)C(=O)n1ccnc1              No
18                             ClCc1ccccc1Cl              No
19                           Nc1cccc2ccccc12              No
20             COc1cc(C[C@@H](C)N)c(OC)cc1Br              No
21                                SCc1ccccc1              No
22            CCOP(=S)(OCC)SCSc1cc(Cl)ccc1Cl              No
23                               O=C(CCl)CCl              No
24                      CN(C1CCCCC1)C1CCCCC1              No
25  CC(C)c1ccc(OP(=O)(Oc2ccc(C(C)C)cc2)Oc2ccc(C(C)C)cc2)cc1              No
26                  O=C(O)CCCOc1ccc(Cl)cc1Cl              No
27                                  NC(=O)CF              No
28  CC(=O)OC(c1ccccc1)C(Cl)(Cl)Cl (stereo not drawn)              No
29  C[N+]1(CCC(C(N)=O)(c2ccccc2)c2ccccc2)CCCCC1              No
30                                     CCCBr              No
31                         CCOP(=O)(O)C(N)=O              No
32            CCCC1CCCCN1 (stereo not drawn)              No
33  C[C@H]1[C@@H]2Cc3ccc(O)cc3[C@@]1(C)CCN2C              No
34  CC(O)CN1CCN(CC(=O)[O-])CCN(CC(=O)[O-])CCN(CC(=O)[O-])CC1.[Gd+3] (stereo not drawn)              No
35                               CC(C)CCON=O              No
36                     O=C(Cl)OCCOCCOC(=O)Cl             Yes
37         C=CCc1ccc(OC(=O)Cc2ccccc2)c(OC)c1              No
